Molecular target: Protein farnesyltransferase (Homo sapiens, UniProt P49354+P49356)
Assay: Inhibition of [3H]FPP incorporation into recombinant human Ha-Ras by Farnesyltransferase
Decision: IC50 beneath 20 nM gives Y; IC50 meeting or exceeding 20 nM gives N.

{"record-smiles": "CC[C@@H](C)[C@@H](CN(CC(=O)N[C@@H](CCSC)C(=O)O)Cc1ccccc1)NC[C@@H](N)CS", "tested-system": "Protein farnesyltransferase (Homo sapiens, UniProt P49354+P49356)", "qualitative-label": "Y"}

input: Input `CC[C@@H](C)[C@@H](CN(C)[C@@H](Cc1ccccc1)C(=O)N[C@@H](CCO)C(=O)O)NC[C@@H](N)CS` ; condition: IC50 strictly below 20 nM. Does it hold?
output: N

input: Input `CC[C@@H](C)[C@@H](CN(C)[C@@H](Cc1ccccc1)C(=O)N[C@@H](CCSC)C(=O)O)NC[C@@H](N)CS` ; condition: IC50 strictly below 20 nM. Does it hold?
output: N

input: Input `CC[C@@H](C)[C@@H](CN(CC(=O)N[C@@H](CCO)C(=O)O)Cc1cccc2ccccc12)NC[C@@H](N)CS` ; condition: IC50 strictly below 20 nM. Does it hold?
output: Y

input: Input `CC[C@@H](C)[C@@H](CN(CC(=O)N[C@@H](CCSC)C(=O)O)Cc1ccccc1)NCCCS` ; condition: IC50 strictly below 20 nM. Does it hold?
output: Y

input: Input `CC[C@@H](C)[C@@H](CN(C)[C@H](C(=O)N[C@@H](CCSC)C(=O)O)[C@@H](C)CC)NC[C@@H](N)CS` ; condition: IC50 strictly below 20 nM. Does it hold?
output: N
